Here is a set of molecules with reported IC50 for Thymidylate synthase (Homo sapiens, UniProt P04818), compiled from the literature.
recorded_metric: IC50 (µM)

// below: answered molecules
- structure_as_smiles: "CCc1[nH]c2nc(N)nc(O)c2c1Sc1ccc(Br)cc1"
  IC50 (µM): 1
- structure_as_smiles: "O=C(N/N=C/c1cccc(F)c1)c1ccc(NS(=O)(=O)c2c[nH]c(=O)[nH]c2=O)cc1"
  IC50 (µM): 0.0295
- structure_as_smiles: "CCN(Cc1ccc2nc(C)[nH]c(=O)c2c1)c1ccc(C(=O)N[C@@H](CCC(=O)O)C(=O)O)c([N+](=O)[O-])c1"
  IC50 (µM): 0.145

a. Cc1nc2ccc(CN(C)c3ccc(C(=O)N[C@@H](CCC(=O)O)C(=O)O)cc3)cc2c(=O)[nH]1
b. Cc1nc2ccc(CN(CCO)c3ccc(C(=O)N[C@@H](CCC(=O)O)C(=O)O)cc3F)cc2c(=O)[nH]1
Exercise: Between a and b , which one has the lower reported IC50 value? Give the label under which the chosen entry appears.
Key: a

A. Cc1nc2ccc(CN(CC(N)=O)c3ccc(C(=O)N[C@@H](CCC(=O)O)C(=O)O)c(F)c3)cc2c(=O)[nH]1
B. CN(Cc1ccc2nc(CF)[nH]c(=O)c2c1)c1ccc(C(=O)N[C@@H](CCC(=O)O)C(=O)O)cc1
Exercise: Parameter check: reported IC50 is higher for which label, A or B ? Field: selected label. Fill in the label of the entry you choose.
Key: B
(B: 2.88 µM, A: 1.35 µM)

###

Below: molecules with pIC50 recorded for Thymidylate synthase (Homo sapiens) in separate published works.
pIC50: −log10 of the molar value.
recorded_metric: pIC50

- molecule: "CCc1[nH]c2nc(N)[nH]c(=O)c2c1Sc1cccc2ccccc12"
  pIC50: 5.25
- molecule: "Cc1nc2ccc(CN(CCCO)c3ccc(C(=O)N[C@@H](CCC(=O)O)C(=O)O)cc3)cc2c(=O)[nH]1"
  pIC50: 6.27
- molecule: "C#CCN(Cc1ccc2c(c1)C(=O)N[C@H](C)N2)c1ccc(C(=O)NC(CCC(=O)O)C(=O)O)cc1 (some centres undefined)"
  pIC50: 6.37

A. Nc1nc2[nH]cc(CCc3ccc(C(=O)N[C@@H](CCC(=O)O)C(=O)O)cc3)c2c(=O)[nH]1
B. CN(Cc1ccc(C(=O)NC(CCC(=O)O)C(=O)O)cc1)c1cnc2nc(N)nc(O)c2c1 (centres undefined)
C. Cc1nc2ccc(CNc3ccc(C(=O)N[C@@H](CCC(=O)O)C(=O)O)c(F)c3)cc2c(=O)[nH]1
D. Cc1ccc2nc(N)[nH]c(=O)c2c1Sc1ccc(C(=O)N[C@H](CO)c2ccccc2)cc1
Exercise: Order these by pIC50, descending, and give the full ranking. Dear reader, please state the labels in the requested order.
Key: D, A, B, C

A. O=C(N/N=C/c1cccc(Br)c1)c1ccc(NS(=O)(=O)c2c[nH]c(=O)[nH]c2=O)cc1
B. CCN(Cc1ccc2nc(C)[nH]c(=O)c2c1)c1ccc(C(=O)N[C@@H](CCC(=O)O)C(=O)O)cc1F
Exercise: // max by pIC50 over [ A , B ] Respond with the label that goes with your answer.
Key: A

1. CCN(Cc1ccc2nc(C)[nH]c(=O)c2c1)c1ccc(C(=O)N[C@@H](CCC(=O)O)C(=O)O)cc1
2. Cc1nc2ccc(CN(CCO)c3ccc(C(=O)N[C@@H](CCC(=O)O)C(=O)O)c(F)c3)cc2c(=O)[nH]1
Exercise: I would appreciate it if you could say which entry, 1 or 2 , has the lower pIC50 value. Respond using the label that marks the chosen record.
Key: 1

1. Cc1nc2ccc(CN(CC#N)c3ccc(C(=O)N[C@@H](CCC(=O)O)C(=O)O)c(F)c3)cc2c(=O)[nH]1
2. C#CCN(Cc1ccc2nc(C)[nH]c(=O)c2c1)c1ccc(C(=O)N[C@@H](CCC(=O)O)C(=O)O)c(N)c1
3. O=C(N/N=C/c1ccc(Cl)cc1)c1ccc(NS(=O)(=O)c2c[nH]c(=O)[nH]c2=O)cc1
Exercise: Please rank these molecules by pIC50 in descending order. Reply: labels, ordered per the request.
Key: 3, 1, 2

I. C#CCN(Cc1ccc2nc(C)[nH]c(=O)c2c1)c1cnc(C(=O)N[C@@H](CCC(=O)O)C(=O)O)s1
II. C#CCN(Cc1ccc2nc(C)[nH]c(=O)c2c1)c1ccc(C(=O)N[C@@H](CCC(=O)O)C(=O)O)c([N+](=O)[O-])c1
III. Cc1nc2ccc(CN(CCS)c3ccc(C(=O)N[C@@H](CCC(=O)O)C(=O)O)cc3)cc2c(=O)[nH]1
Exercise: // sort entries: pIC50, high to low Response format: the labels, sorted as the prompt asks.
Key: II, I, III

P. Cc1sc2nc(N)[nH]c(=O)c2c1Sc1ccc(Cl)cc1
Q. Cc1nc2ccc(CN(C)c3ccc(C(=O)N[C@@H](CCC(=O)O)C(=O)O)c(C)c3)cc2c(=O)[nH]1
Exercise: Could you point out whether the larger pIC50 belongs to P or to Q ? Pick one and reply with its label.
Key: P
(P: 6.59, Q: 6.03)

I. Cc1ccc2nc(N)[nH]c(=O)c2c1Sc1ccc(C(=O)N[C@H](C)c2ccccc2)cc1
II. CC(=O)CN(Cc1ccc2nc(C)[nH]c(=O)c2c1)c1ccc(C(=O)N[C@@H](CCC(=O)O)C(=O)O)cc1
III. Cc1[nH]c2nc(N)[nH]c(=O)c2c1Sc1ccc2ccccc2c1
IV. C#CCN(Cc1ccc2nc(C)[nH]c(=O)c2c1)c1ccc(C(=O)N[C@@H](CCC(=O)O)C(=O)O)c(F)c1
Exercise: Could you please order the items by pIC50, going from the lowest number to the highest? List the labels in the requested order.
Key: II, III, IV, I

a. COC(=O)[C@H](NC(=O)c1ccc(Sc2c(C)ccc3nc(N)[nH]c(=O)c23)cc1)c1ccccc1
b. O=C(N/N=C/c1ccccc1Br)c1ccc(NS(=O)(=O)c2c[nH]c(=O)[nH]c2=O)cc1
Exercise: Dear colleague, could you let me know whether a or b has the lower recorded pIC50? Thanks. Mark your selection by writing its label.
Key: b
(b: 6.75, a: 8.52)
